EC50 overview
target: T1, huNav1.7α + β1-β2-β3 (human, UniProt Q15858 1-1988; A5A6L6 19-218; O60939 30-215; Q2KI11 23-215); test: binding FACS, CHO FlpIn
T1 construct: also called huNav1.7-beta1-beta2-beta3; huNav1.7-β1-β2-β3
Please respond with the number in nM and leave the unit unwritten.

The following binders have reported results that may help.
{"columns": ["BINDER", "EC50 (nM)"],
 "data": [
  ["F010301869 (VHH, also called F0103464B09(L11V, S68T, M77T, T79Y, R81Q, S82aN, N82bS, K83R, G88A, V89L)) VHH: EVQLVESGGGVVQPGGSLRLSCATTSRAFIRDVFTGWYRRVPGKERELVARIYNGGNTNYADFAKGRFTISRDNAKKTVYLQMNSLRPEDTALYYCLFSGTINTGREYRSGDYWGQGTLVTVSS", 7.6],
  ["F010302341 (VHH) VHH: EVQLVESGGGVVQPGGSLRLSCAASSRQFIRDVFTGWYRQAPGKQRELVARIYNEGNTNYADSAKGRFTISRDNAKKTVYLQMNSLRPEDTALYYCLFSGTISTGREYRSGDYWGQGTLVTVSS", 5.3],
  ["F010302368 (VHH, also called F0103464B09(L11V, T24A, T25S, R39Q, V40A, E44Q, F62S, A63V, S68T, M77T, T79Y, R81Q, S82aN, N82bS, K83R, G88A, V89L,N99S)) VHH: EVQLVESGGGVVQPGGSLRLSCAASSRAFIRDVFTGWYRQAPGKQRELVARIYNGGNTNYADSVKGRFTISRDNAKKTVYLQMNSLRPEDTALYYCLFSGTISTGREYRSGDYWGQGTLVTVSS", 3.9]
]}

Exam item: Report measured EC50; entry is F010301870 (VHH, also called F0103464B09(L11V, S68T, T79Y, R81Q, S82aN, N82bS, K83R, G88A, V89L, L93N)) VHH: EVQLVESGGGVVQPGGSLRLSCATTSRAFIRDVFTGWYRRVPGKERELVARIYNGGNTNYADFAKGRFTISRDNAKKMVYLQMNSLRPEDTALYYCNFSGTINTGREYRSGDYWGQGTLVTVSS
Marked response: 10
